Tested on: recombinant rat PAI-1 (Rattus norvegicus)
Sequence (P20961 24-402): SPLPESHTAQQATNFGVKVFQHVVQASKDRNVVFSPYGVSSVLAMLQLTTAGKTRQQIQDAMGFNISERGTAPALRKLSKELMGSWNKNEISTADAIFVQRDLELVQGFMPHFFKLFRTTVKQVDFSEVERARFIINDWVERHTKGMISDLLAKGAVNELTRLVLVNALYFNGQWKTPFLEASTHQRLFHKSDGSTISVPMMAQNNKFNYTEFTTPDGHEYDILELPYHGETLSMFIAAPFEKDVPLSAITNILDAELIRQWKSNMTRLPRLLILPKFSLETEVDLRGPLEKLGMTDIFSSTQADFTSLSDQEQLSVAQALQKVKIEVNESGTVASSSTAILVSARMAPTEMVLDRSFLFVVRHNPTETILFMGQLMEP
Assay comment: biochemical
Cond: read-out: Inhibition Rate of PAI-1 Activity (%)
Binned inhibition at 1 µM; ranges: lo = under 10%, mid = from 10% up to 30%, hi = 30% and over

Worked set:
Compound	Assigned class
CCCCOc1ccc(N(Cc2ccc(C(C)(C)C)cc2)C(=O)C(=O)O)cc1-c1ccc(OC(F)(F)F)cc1 [Compound 193]	mid
CC(C)(C)c1ccc(CN(C(=O)C(=O)O)c2ccc(-c3ccc(OC(F)(F)F)cc3)cc2)cc1 [Compound 129]	mid
CC(C)(Oc1cc(-c2ccc(OC(F)(F)F)cc2)ccc1OCc1ccc(C(C)(C)C)cc1)C(=O)O [Compound 106]	mid
CC(C)(C)c1ccc(CN(C(=O)C(=O)O)c2ccc(OCc3ccccc3)c(-c3ccc(OC(F)(F)F)cc3)c2)cc1 [Compound 212]	hi
CC(C)(C)c1ccc(COc2ccc(-c3ccc(OC(F)(F)F)cc3)cc2N(Cc2ccccc2)C(=O)C(=O)O)cc1 [Compound 179]	hi

Query: Textbook exercise: identify the category of the compound given here, CCCOc1ccc(N(Cc2ccc(C(C)(C)C)cc2)C(=O)C(=O)O)c(-c2ccc(OC(F)(F)F)cc2)c1 [Compound 198] , according to its measured value.
Result: mid

Query: Textbook exercise: identify the category of the compound given here, CC(C)(C)c1ccc(C(c2ccccc2)N(C(=O)C(=O)O)c2ccc(-c3ccc(OC(F)(F)F)cc3)cc2)cc1 (stereo not shown) [Compound 222] , according to its measured value.
Result: hi

Query: Textbook exercise: identify the category of the compound given here, CC(C)(C)c1ccc(Oc2cc(-c3ccc(OC(F)(F)F)cc3)ccc2CCC(=O)O)cc1 [Compound 80] , according to its measured value.
Result: mid

Query: Textbook exercise: identify the category of the compound given here, CC(C)(C)c1ccc(COc2c(OCC(=O)O)cccc2-c2ccc(OC(F)(F)F)cc2)cc1 [Compound 117] , according to its measured value.
Result: lo

Query: Textbook exercise: identify the category of the compound given here, CCCCC(c1ccc(C(C)(C)C)cc1)N(C(=O)C(=O)O)c1ccc(-c2ccc(OC(F)(F)F)cc2)cc1 (stereo not shown) [Compound 221] , according to its measured value.
Result: hi

Query: Textbook exercise: identify the category of the compound given here, CC(C)(C)c1ccc(CN(C(=O)C(=O)O)c2ccc(Cl)cc2-c2ccc(OC(F)(F)F)cc2)cc1 [Compound 192] , according to its measured value.
Result: lo

Query: Textbook exercise: identify the category of the compound given here, COc1cc(OC)c(N(Cc2ccc(C(C)(C)C)cc2)C(=O)C(=O)O)cc1-c1ccc(OC(F)(F)F)cc1 [Compound 190] , according to its measured value.
Result: mid

Query: Textbook exercise: identify the category of the compound given here, CC(C)(C)c1ccc(Oc2cc(-c3ccc(OC(F)(F)F)cc3)ccc2OCC(=O)O)cc1 [Compound 112] , according to its measured value.
Result: mid

###

Tested on: recombinant human PAI-1 (Homo sapiens)
Assay comment: biochemical
Cond: read-out: Inhibition Rate of PAI-1 Activity (%)
Cut-off 70% on inhibition at 10 µM, inclusive. At or above means Criterion met; below means Criterion not met.

Given smiles	Assigned class
CC(C)(C)c1ccc(COc2ccc(Oc3ccc(OC(F)(F)F)cc3)cc2/C=C/C(=O)O)cc1	Criterion met
CCC(CC)Oc1ccc(N(CCCc2ccccc2)C(=O)C(=O)O)c(-c2ccc(OC(F)(F)F)cc2)c1	Criterion met
Cc1ccc(-c2cccc([N+](=O)[O-])c2)cc1N(Cc1ccc(C(C)(C)C)cc1)C(=O)C(=O)O	Criterion not met
O=C(O)C(=O)N(Cc1ccccc1)c1c(Cl)cc(-c2ccc(OC(F)(F)F)cc2)cc1Cl	Criterion not met

Moving on to the next compound.
Query: Check the entry CC(C)(C)c1ccc(-c2ccc(N(Cc3ccc(OC(F)(F)F)cc3)C(=O)C(=O)O)cc2)cc1 : does inhibition at 10 µM equal or exceed 70%?
Result: Criterion met

###

Tested on: recombinant human PAI-1 (Homo sapiens, UniProt P05121)
Sequence (P05121 24-402): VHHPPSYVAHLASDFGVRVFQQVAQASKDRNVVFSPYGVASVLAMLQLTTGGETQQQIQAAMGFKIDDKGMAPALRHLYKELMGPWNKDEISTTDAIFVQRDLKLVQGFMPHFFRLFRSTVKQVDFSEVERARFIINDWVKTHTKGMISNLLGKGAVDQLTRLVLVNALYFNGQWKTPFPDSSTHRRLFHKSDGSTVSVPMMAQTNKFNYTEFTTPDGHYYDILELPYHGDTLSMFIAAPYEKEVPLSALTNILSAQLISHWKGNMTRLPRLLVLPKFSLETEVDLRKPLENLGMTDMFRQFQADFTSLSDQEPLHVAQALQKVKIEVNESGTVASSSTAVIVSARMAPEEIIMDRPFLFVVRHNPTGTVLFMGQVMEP
Assay comment: Test Example 4: Human PAI-1 Inhibitory Activity (amount of PAI-1 bound to plate-coated one-chain tPA, ELISA)
Format: biochemical
Parameters: purchased Molecular Innovations, Inc
Cond: human PAI-1 bound to tPA; Compound Concentration 0.3µM; read-out: Inhibition Rate of PAI-1 Activity (%)
Binned inhibition at 0.3 µM; ranges: interval 1 = under 2%, interval 2 = from 2% up to 9%, interval 3 = 9% and over

Compound	Assigned class
CC(C)(C)c1ccc(Oc2cc(-c3ccc(OC(F)(F)F)cc3)ccc2OCC(=O)O)cc1	interval 1
CC(C)(C)c1ccc(CN(C(=O)C(=O)O)c2ccc(-c3ccc(OC(F)(F)F)cc3)cc2)cc1	interval 2
CCCCC(c1ccc(C(C)(C)C)cc1)N(C(=O)C(=O)O)c1ccc(-c2ccc(OC(F)(F)F)cc2)cc1 (stereo not drawn)	interval 1
CC(C)(C)c1ccc(CN(C(=O)C(=O)O)c2ccc(Cl)c(-c3ccc(OC(F)(F)F)cc3)c2)cc1	interval 3

Query: Textbook exercise: identify the category of the compound given here, CC(C)(C)c1ccc(CN(C(=O)C(=O)O)c2ccc(Oc3ccc(OC(F)(F)F)cc3)cc2C(F)(F)F)cc1 , according to its measured value.
Result: interval 1

Query: Textbook exercise: identify the category of the compound given here, CCCCOc1ccc(-c2ccc(OC(F)(F)F)cc2)cc1N(Cc1ccc(C(C)(C)C)cc1)C(=O)C(=O)O , according to its measured value.
Result: interval 3

###

Tested on: recombinant human PAI-1 (Homo sapiens)
Assay comment: Test Example 2: Human PAI-1 Inhibitory Activity (pH 7.4 HEPES buffer, 10 minutes incubation with two-chain tPA)
Format: biochemical
Set-up: purchased Molecular Innovations, Inc
Cond: read-out: Inhibition Rate of PAI-1 Activity (%)
Entries and their inhibition at 3 µM values follow.

Given smiles	Result
CC(C)(Oc1cccc(-c2ccc(OC(F)(F)F)cc2)c1OCc1ccc(C(C)(C)C)cc1)C(=O)O	> 99%

Query: Record lookup: for recombinant human PAI-1 (Homo sapiens), what inhibition at 3 µM belongs to CC(C)(C)c1ccc(COc2cc(-c3ccc(OC(F)(F)F)cc3)ccc2CCC(=O)O)cc1 ?
Result: 99%

Query: Record lookup: for recombinant human PAI-1 (Homo sapiens), what inhibition at 3 µM belongs to CC(C)(C)c1ccc(Oc2ccc(Nc3ccc(OC(F)(F)F)cc3)cc2/C=C/C(=O)O)cc1 ?
Result: > 99%

Query: Record lookup: for recombinant human PAI-1 (Homo sapiens), what inhibition at 3 µM belongs to CCC(CC)Oc1ccc(N(CCCc2ccccc2)C(=O)C(=O)O)cc1-c1ccc(OC(F)(F)F)cc1 ?
Result: 96%

###

Tested on: recombinant human PAI-1 (Homo sapiens, UniProt P05121)
Assay comment: Test Example 2: Human PAI-1 Inhibitory Activity (pH 7.4 HEPES buffer, 10 minutes incubation with two-chain tPA)
Type: biochemical
Design: purchased Molecular Innovations, Inc
Cond: read-out: Inhibition Rate of PAI-1 Activity (%)
Readout: inhibition at 3 µM (%)
Lab book: enter the figure in %, no units written.

Compound	Quantity unit	inhibition at 3 µM
O=C(O)C(=O)N(CCCCc1ccccc1)c1cc(-c2ccc(OC(F)(F)F)cc2)ccc1OCCCC1CCCCC1	%	88
CCCCCCC(Oc1cc(-c2ccc(OC(F)(F)F)cc2)ccc1Oc1ccc(C(F)(F)F)cc1)C(=O)O (stereo not shown)	%	95
CCCCC1CCC(Oc2ccc(-c3ccc(OC(F)(F)F)cc3)cc2N(CCCCc2ccccc2)C(=O)C(=O)O)CC1 (stereo not shown)	%	71
CCN(CC)c1ccc(N(Cc2ccc(C(C)(C)C)cc2)C(=O)C(=O)O)cc1-c1ccc(OC(F)(F)F)cc1	%	98
Cc1cccc(-c2ccc(Oc3ccc(C(C)(C)C)cc3)c(OCC(=O)O)c2)c1	%	84
CCCCCOc1ccc(-c2ccc(OC(F)(F)F)cc2)cc1N(CCCCc1cc(C)ccc1C)C(=O)C(=O)O	%	94
O=C(O)C(=O)N(CCCCc1ccccc1)c1cc(-c2ccc(OC(F)(F)F)cc2)ccc1N1CCCCC1	%	97
CC(C)(C)c1ccc(Oc2cccc(-c3ccc(OC(F)(F)F)cc3)c2CCC(=O)O)cc1	%	96

Query: Item under review: O=C(O)CCc1ccc(-c2ccc(OC(F)(F)F)cc2)cc1OCCCSc1ccccc1 . Reported inhibition at 3 µM?
Result: 98

Query: Item under review: O=C(O)CCCCCCOc1ccc(-c2ccc(OC(F)(F)F)cc2)cc1N(CCCCc1ccccc1)C(=O)C(=O)O . Reported inhibition at 3 µM?
Result: 61

Query: Item under review: CC(C)c1ccc(Oc2cc(-c3ccc(OC(F)(F)F)cc3)ccc2OCC(=O)O)cc1 . Reported inhibition at 3 µM?
Result: 91

###

Tested on: recombinant human PAI-1 (Homo sapiens, UniProt P05121)
Assay comment: Test Example 2: Human PAI-1 Inhibitory Activity (pH 7.4 HEPES buffer, 10 minutes incubation with two-chain tPA)
Type: biochemical
Design: purchased Molecular Innovations, Inc
Cond: read-out: Inhibition Rate of PAI-1 Activity (%)
Readout: inhibition at 0.1 µM (%)
Lab book: enter the figure in %, no units written.

Consider the reported inhibition at 0.1 µM for these compounds:
Given smiles	Tested on	Quantity unit	inhibition at 0.1 µM
O=C(O)C(=O)N(CCCCc1ccccc1)c1cc(-c2ccc(OC(F)(F)F)cc2)ccc1OC1CCCCC1	recombinant human PAI-1 (Homo sapiens, UniProt P05121)	%	0
O=C(O)C(=O)N(CCCCc1ccccc1)c1ccc(N2CCCCCC2)c(-c2ccc(OC(F)(F)F)cc2)c1	recombinant human PAI-1 (Homo sapiens, UniProt P05121)	%	5
CCCCCOc1ccc(-c2cccc(OC(F)(F)F)c2)cc1N(CCCCc1ccccc1)C(=O)C(=O)O	recombinant human PAI-1 (Homo sapiens, UniProt P05121)	%	10
CCCCCCCOc1cc(N(CCCCc2ccccc2)C(=O)C(=O)O)ccc1-c1ccc(OC(F)(F)F)cc1	recombinant human PAI-1 (Homo sapiens, UniProt P05121)	%	16

Query: Item under review: CN(CC(=O)O)c1ccc(-c2ccc(OC(F)(F)F)cc2)cc1Oc1ccc(C(C)(C)C)cc1 . Reported inhibition at 0.1 µM?
Result: 13

Query: Item under review: CC(C)(C)c1ccc(Oc2cc(-c3ccc(C(C)(C)C)cc3)ccc2OCC(=O)O)cc1 . Reported inhibition at 0.1 µM?
Result: 3

Data credit: patent EP2272817A1
